molecular target: LmjIPCS (inositol phosphorylceramide synthase from L. major) (Leishmania major); assay: biochemical; type: biochemical; set-up: dose or concentration left out as unconfirmed; settings: read-out: inhibition LmjIPCS
Sequence (E9AFX2 whole entry): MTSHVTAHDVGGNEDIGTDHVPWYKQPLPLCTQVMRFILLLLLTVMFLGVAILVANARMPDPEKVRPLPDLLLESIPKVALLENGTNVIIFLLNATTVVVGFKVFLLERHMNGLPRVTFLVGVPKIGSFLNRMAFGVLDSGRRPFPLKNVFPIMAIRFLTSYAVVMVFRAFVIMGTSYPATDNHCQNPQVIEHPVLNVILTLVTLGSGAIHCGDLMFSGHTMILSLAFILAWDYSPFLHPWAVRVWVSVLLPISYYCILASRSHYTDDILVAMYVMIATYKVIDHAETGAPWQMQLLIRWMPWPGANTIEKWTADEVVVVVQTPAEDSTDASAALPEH
PARAMETER: inhibition (%)
Answer with a number only, understood to be in %.

Illustrative cases are given below, each with its answer.
[[record]]
molecule = "C[C@]12CCC(=O)C=C1C=C[C@@H]1[C@@H]2CC[C@@]2(C)[C@H]1CC[C@@]2(O)CCC(=O)O"
reported_value = 7

[[record]]
molecule = "Nc1nc(=O)c2nc(CNc3ccc(C(=O)N[C@@H](CCC(=O)O)C(=O)O)cc3)cnc2[nH]1"
reported_value = 5.56

[[record]]
molecule = "CCCn1c(=O)c2[nH]c(C3CCCC3)nc2n(CCC)c1=O"
reported_value = 2.66

[[record]]
molecule = "Nc1ccn([C@@H]2O[C@H](CO)[C@@H](O)[C@@H]2O)c(=O)n1"
reported_value = -1.69

[[record]]
molecule = "CCc1cccc2c3c([nH]c12)C(CC)(CC(=O)O)OCC3 (stereo not shown)"
reported_value = 13


For the molecule COc1c2ccoc2cc2oc(=O)ccc12 , what inhibition is on record?
17

For the molecule CC(=O)O[C@H]1C(=O)[C@@]2(C)[C@H]([C@H](OC(=O)c3ccccc3)[C@]3(O)C[C@H](OC(=O)[C@H](O)[C@@H](NC(=O)c4ccccc4)c4ccccc4)C(C)=C1C3(C)C)[C@]1(OC(C)=O)CO[C@@H]1C[C@@H]2O , what inhibition is on record?
0.0705

For the molecule CN(Cc1cnc2nc(N)nc(N)c2n1)c1ccc(C(=O)N[C@@H](CCC(=O)O)C(=O)O)cc1 [METHOTREXATE] , what inhibition is on record?
8

Data origin: paper PMC7802075
